target: Human immunodeficiency virus type 1 reverse transcriptase (Human immunodeficiency virus 1)
pIC50: −log10 of the molar value.
pIC50 vs 5: at or above is Yes, below is No.

Exam item: Please check the record Cn1cc(C(=O)c2ccc(F)cc2)cc1/C=C/C(=O)/C=C(\O)C(=O)O and state if its pIC50 is at or above 5.
Marked response: No

Exam item: Please check the record CCOC(=O)/C(O)=C/C(=O)/C=C/c1cc(C(=O)c2ccc(F)cc2)cn1C and state if its pIC50 is at or above 5.
Marked response: No

Exam item: Please check the record N/C(=C\C(=O)c1cn(Cc2ccc(F)cc2)cc1-c1ccccc1)C(=O)O (mixture of isomers) and state if its pIC50 is at or above 5.
Marked response: Yes

Exam item: Please check the record C/C(C(=O)c1cn(Cc2ccc(F)cc2)cc1-c1ccccc1)=C(/O)C(=O)O and state if its pIC50 is at or above 5.
Marked response: No

Exam item: Please check the record CCOC(=O)/C(N)=C/C(=O)c1cn(Cc2ccc(F)cc2)cc1-c1ccccc1 and state if its pIC50 is at or above 5.
Marked response: No

Exam item: Please check the record CCOC(=O)/C(O)=C/C(=O)/C=C/c1cn(Cc2ccc(F)cc2)cc1-c1ccccc1 and state if its pIC50 is at or above 5.
Marked response: Yes

Where do these numbers come from? They come from ChEMBL document CHEMBL3414482.
